- SYSTEM_NAME: Transient receptor potential cation channel subfamily V member 1 (Homo sapiens, UniProt Q8NER1)
- Sequence (Q8NER1 whole entry): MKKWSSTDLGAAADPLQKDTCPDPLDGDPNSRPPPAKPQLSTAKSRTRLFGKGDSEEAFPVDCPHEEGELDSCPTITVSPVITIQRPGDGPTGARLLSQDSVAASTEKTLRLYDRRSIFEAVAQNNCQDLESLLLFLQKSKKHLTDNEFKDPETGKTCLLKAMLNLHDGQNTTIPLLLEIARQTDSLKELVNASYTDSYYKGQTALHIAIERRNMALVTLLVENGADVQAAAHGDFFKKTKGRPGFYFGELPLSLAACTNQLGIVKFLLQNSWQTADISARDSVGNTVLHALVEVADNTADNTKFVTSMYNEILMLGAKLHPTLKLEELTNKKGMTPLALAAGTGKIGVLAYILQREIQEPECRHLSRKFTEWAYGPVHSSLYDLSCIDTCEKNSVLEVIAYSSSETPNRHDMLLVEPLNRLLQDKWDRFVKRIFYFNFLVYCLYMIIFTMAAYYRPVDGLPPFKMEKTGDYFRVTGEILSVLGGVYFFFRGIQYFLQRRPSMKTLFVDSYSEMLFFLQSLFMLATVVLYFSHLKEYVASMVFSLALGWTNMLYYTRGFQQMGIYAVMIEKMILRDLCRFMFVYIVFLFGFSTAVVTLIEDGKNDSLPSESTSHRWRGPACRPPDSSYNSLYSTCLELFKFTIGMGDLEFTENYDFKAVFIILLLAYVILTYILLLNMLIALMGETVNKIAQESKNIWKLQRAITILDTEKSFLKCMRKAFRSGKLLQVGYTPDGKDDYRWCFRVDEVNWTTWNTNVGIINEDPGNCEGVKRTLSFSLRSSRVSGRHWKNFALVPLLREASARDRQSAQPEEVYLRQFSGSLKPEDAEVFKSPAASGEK
- ASSAY: Antagonist activity at human TRPV1 assessed as inhibition of capsaicin-induced receptor activation by FLIPR assay
PROPERTY_LABEL: IC50 (µM)
// units = µM; emit number, no label

- FC(F)(F)c1csc(Nc2ccnc3nc(-c4ncccc4C(F)(F)F)ccc23)n1: 0.047
- FC(F)(F)c1ccc(Nc2ccnc3nc(-c4ncccc4C(F)(F)F)cnc23)nc1: 0.0002
- N#Cc1nc(Nc2ccnc3nc(-c4ncccc4C(F)(F)F)ccc23)ncc1C(F)(F)F: 0.0254
- FC(F)(F)c1cnc(Nc2ccnc3nc(-c4ncccc4C(F)(F)F)ccc23)nc1Cl: 0.081
- FC(F)(F)c1ccc(Nc2ccnc3nc(-c4ncsc4C(F)(F)F)ccc23)nc1: 0.012
- FC(F)(F)c1ccc(Nc2ccnc3nc(-c4nnccc4C(F)(F)F)ccc23)nc1: 0.0084

Any idea what its IC50 is? The molecule is `O=C(O)c1ccnc(-c2ccc3c(Nc4ccc(C(F)(F)F)cn4)ccnc3n2)c1C(F)(F)F` 0.607

# get_value(readout='IC50', item= `FC(F)(F)c1cnc(Nc2ccnc3nc(-c4ncccc4C(F)(F)F)ccc23)nc1` ) 0.0044

# get_value(readout='IC50', item= `N#Cc1cnc(-c2cnc3c(Nc4ccc(C(F)(F)F)cn4)ccnc3n2)c(C(F)(F)F)c1` ) 0.015

* * *

- ASSAY: Oral bioavailability in rat at 1 mg/kg
- Assay type: ADME, organism-based
- COND: in vivo
PROPERTY_LABEL: bioavailability (%)
Unit % implied. Number only.

Need bioavailability, item `NC(=O)c1cnc(-c2cnc3c(Nc4ccc(C(F)(F)F)cn4)ccnc3n2)c(C(F)(F)F)c1` 103

* * *

- System: Plasma
- ASSAY: Covalent protein binding in rat assessed per mg of protein at 8.1 mg/kg, po after 2 to 24 hrs
- COND: in vivo
PROPERTY_LABEL: covalent protein binding

Return reported covalent protein binding; argument: `NC(=O)c1cnc(-c2cnc3c(Nc4ccc(C(F)(F)F)cn4)ccnc3n2)c(C(F)(F)F)c1` < 10 pmol/mg

* * *

- ASSAY: AUC (0 to 24 hrs) in rhesus monkey at 1 mg/kg, po
- Format: ADME, organism-based, Macaca mulatta
- Parameters: time < 24 hr, dose 1 mg/kg, route oral
- COND: plasma
PROPERTY_LABEL: AUC(0-t) at 24 h (µM·h)
Number only, in µM·h; omit the unit.

Could you share which AUC(0-t) at 24 h value was measured for `NC(=O)c1cnc(-c2cnc3c(Nc4ccc(C(F)(F)F)cn4)ccnc3n2)c(C(F)(F)F)c1` ? 4.9

* * *

- ASSAY: Cmax in rat brain at 10 mg/kg, po
- Assay type: ADME, organism-based
- Set-up: dose 10 mg/kg, route oral
PROPERTY_LABEL: Cmax (nM)
Give the number; nM is assumed, so skip it.

If you can, please state the reported Cmax value of `NC(=O)c1cnc(-c2cnc3c(Nc4ccc(C(F)(F)F)cn4)ccnc3n2)c(C(F)(F)F)c1` . 300

* * *

- ASSAY: Clearance in dog at 1 mg/kg, iv
- Type: ADME, organism-based, Canis lupus familiaris
- Parameters: dose 1 mg/kg, route intravenous
- COND: in vivo
PROPERTY_LABEL: clearance (L/h/kg)
# unit: L/h/kg | format: bare number

Fill in: clearance of `NC(=O)c1cnc(-c2cnc3c(Nc4ccc(C(F)(F)F)cn4)ccnc3n2)c(C(F)(F)F)c1` is ___ 0.444
